ASSAYED_SYSTEM: Muscarinic acetylcholine receptors; M1 & M2 (Homo sapiens) (UniProt P11229+P08172)
ASSAY_COMMENT: Selectivity ratio of binding affinity (Ki) of cloned human muscarinic acetylcholine receptor M1 to the binding affinity (Ki) of muscarinic acetylcholine receptor M2
Assay type: protein assay
Measured Ratio, listed per entry for reference.
Enter the number alone.

Here are 2 compounds together with their reported answers.
Recorded Ratio for COc1ccc(S(=O)(=O)c2ccc([C@H](C)N3CCN(C4CCN(C(=O)c5ccccc5C)CC4)C[C@H]3C)cc2)c(OC)c1 with Muscarinic acetylcholine receptors; M1 & M2 (Homo sapiens) (UniProt P11229+P08172), please?
147

// query: C[C@@H]1CN(C2CCN(C(=O)c3ccccc3O)CC2)CCN1[C@@H](C)c1ccc(S(=O)(=O)c2ccc3c(c2)OCO3)cc1
84

Further cases:
Recorded Ratio for Cc1cccnc1C(=O)N1CCC(N2CCN([C@@H](C)c3ccc(S(=O)(=O)c4ccc5c(c4)OCO5)cc3)[C@H](C)C2)CC1 with Muscarinic acetylcholine receptors; M1 & M2 (Homo sapiens) (UniProt P11229+P08172), please?
8

Where do these numbers come from? They come from ChEMBL document CHEMBL1135228.
